Target: human orexin type 2 receptor (Homo sapiens, UniProt O43614)
Construct: expressed in transfected cells
Sequence (O43614 1-444): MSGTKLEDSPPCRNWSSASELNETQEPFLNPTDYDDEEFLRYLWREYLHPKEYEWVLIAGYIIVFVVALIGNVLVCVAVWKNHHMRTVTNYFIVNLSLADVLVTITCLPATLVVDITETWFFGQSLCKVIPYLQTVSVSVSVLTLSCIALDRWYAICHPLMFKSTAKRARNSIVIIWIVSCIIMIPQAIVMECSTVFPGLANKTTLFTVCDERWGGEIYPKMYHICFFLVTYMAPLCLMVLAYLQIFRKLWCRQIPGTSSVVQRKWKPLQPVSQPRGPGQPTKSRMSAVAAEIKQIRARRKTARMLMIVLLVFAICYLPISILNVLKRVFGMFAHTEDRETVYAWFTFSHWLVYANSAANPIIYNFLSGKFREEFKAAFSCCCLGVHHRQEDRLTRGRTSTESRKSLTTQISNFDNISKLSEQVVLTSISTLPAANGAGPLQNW
Test: Measurement of orexin type 2 receptor agonist activity (calcium indicator fluorescence, CHO cells forcibly expressing human OX2 receptor)
Assay type: cell-based
Settings: compound at 3 μM; 0% = DMSO, 100% = orexin A (human) 10 nM
Recorded OX2R agonist activity (3 μM, %) for the following compounds
Measured Property: OX2R agonist activity (3 μM, %)

> print(dat)
                                   compound  units.of.measure  readout.value
1  CCS(=O)(=O)N[C@H]1[C@@H](F)CN(C(=O)[C@H]2CCCO2)[C@H]1Cc1cccc(-c2cc(F)cc(F)c2)c1F                 %             95
2  CCS(=O)(=O)N[C@@H]1[C@H](Cc2cccc(-c3cc(C)cc(F)c3)c2F)N(C(=O)N(C)C)CC1(F)F                 %             95
3  CS(=O)(=O)N[C@@H]1[C@H](Cc2cccc(-c3cc(F)cc(F)c3)c2F)N(C(=O)[C@H]2C[C@H](F)C2)CC1(F)F                 %            106
4  CS(=O)(=O)N[C@@H]1[C@H](Cc2cccc(-c3cccc(F)c3F)c2F)N(C(=O)[C@@H]2CCO2)CC1(F)F                 %             96
5  O=C(C1CCO1)N1CC(F)(F)[C@H](NS(=O)(=O)C2CC2)[C@@H]1Cc1cccc(-c2cccc(F)c2)c1F (stereo partly drawn)                 %             92
6  Cc1cccc(-c2cccc(C[C@H]3[C@@H](NS(=O)(=O)N(C)C)C(F)(F)CN3C(=O)[C@H]3CCO3)c2F)c1F                 %            101

----------
target: human orexin type 2 receptor (Homo sapiens); construct: expressed in transfected cells; experiment: Measurement of orexin type 2 receptor agonist activity (calcium indicator fluorescence, CHO cells forcibly expressing human OX2 receptor); format: cell-based; conditions: compound at 3 μM; 0% = DMSO, 100% = orexin A (human) 10 nM
Lab note: anything with OX2R agonist activity (3 μM, %) below 90% is marked Y; values at 90% or higher are marked N.

> print(dat)
                                   molecule                       experimental.target  classification
1  CCS(=O)(=O)N[C@H]1[C@@H](F)CN(C(=O)C2CC2)[C@H]1Cc1cccc(-c2cc(C)cc(F)c2)c1F  human orexin type 2 receptor (Homo sapiens)               N
2  CCS(=O)(=O)N[C@H]1[C@@H](F)CN(C(=O)C(C)(C)O)[C@H]1Cc1cccc(-c2cc(Cl)ccc2F)c1F  human orexin type 2 receptor (Homo sapiens)               N
3  CCS(=O)(=O)N[C@@H]1[C@H](Cc2cccc(-c3cccc(OC(F)F)c3)c2F)N(C(=O)C2(O)CCC2)CC1(F)F  human orexin type 2 receptor (Homo sapiens)               N
4  CCS(=O)(=O)N[C@@H]1[C@H](Cc2cccc(-c3ccccc3)c2)N(C(=O)C2CCO2)CC1(F)F (stereo partly shown) [Example 51]  human orexin type 2 receptor (Homo sapiens)               N
5  Cc1cccc(-c2cccc(C[C@H]3[C@@H](NS(=O)(=O)N(C)C)[C@@H](F)CN3C(=O)C3(O)CCC3)c2F)c1  human orexin type 2 receptor (Homo sapiens)               Y
6  CCS(=O)(=O)N[C@H]1[C@@H](F)CN(C(=O)C23CC(C2)C3)[C@H]1Cc1cccc(-c2ccccc2)c1F  human orexin type 2 receptor (Homo sapiens)               N

----------
OX2R agonist activity (3 μM, %) listing for selected molecules.
target: human orexin type 2 receptor (Homo sapiens); construct: expressed in transfected cells; assay: Measurement of orexin type 2 receptor agonist activity (calcium indicator fluorescence, CHO cells forcibly expressing human OX2 receptor); format: cell-based; conditions: compound at 3 μM; 0% = DMSO, 100% = orexin A (human) 10 nM
Measured Property: OX2R agonist activity (3 μM, %)

> print(dat)
                               query.smiles                       experimental.target  readout.value
1  CCS(=O)(=O)N[C@@H]1[C@H](Cc2cccc(-c3cccc(Cl)c3F)c2F)N(C(=O)C2CC2)CC1(F)F  human orexin type 2 receptor (Homo sapiens)             90
2  CCS(=O)(=O)N[C@H]1[C@@H](F)CN(C(=O)C2CC2)[C@H]1Cc1cccc(-c2cccc(C)c2F)c1F  human orexin type 2 receptor (Homo sapiens)             98
3  Cc1cccc(-c2cccc(C[C@H]3[C@@H](NS(=O)(=O)C4CC4)C(F)(F)CN3C(=O)N3CCC3)c2F)c1F  human orexin type 2 receptor (Homo sapiens)             95
4  O=C(C1CC1)N1C[C@H](F)[C@H](NS(=O)(=O)C2CC2)[C@@H]1Cc1cccc(-c2cc(F)ccc2F)c1F  human orexin type 2 receptor (Homo sapiens)             93

----------
Known OX2R agonist activity (3 μM, %) of a selection of molecules
Target: human orexin type 2 receptor (Homo sapiens, UniProt O43614)
Construct: expressed in transfected cells
Sequence (O43614 1-444): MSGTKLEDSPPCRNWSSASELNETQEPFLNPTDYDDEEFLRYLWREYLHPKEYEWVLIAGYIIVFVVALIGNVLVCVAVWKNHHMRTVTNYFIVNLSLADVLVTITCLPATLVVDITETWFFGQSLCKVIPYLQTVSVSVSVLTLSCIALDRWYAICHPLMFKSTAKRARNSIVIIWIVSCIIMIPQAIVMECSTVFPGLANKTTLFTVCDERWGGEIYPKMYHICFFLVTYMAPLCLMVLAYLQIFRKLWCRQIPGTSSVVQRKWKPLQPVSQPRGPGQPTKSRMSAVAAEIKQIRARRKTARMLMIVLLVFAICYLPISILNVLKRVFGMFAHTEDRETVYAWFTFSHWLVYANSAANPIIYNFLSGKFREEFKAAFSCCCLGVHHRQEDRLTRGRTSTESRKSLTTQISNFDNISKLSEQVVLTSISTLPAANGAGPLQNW
Assay: Measurement of orexin type 2 receptor agonist activity (calcium indicator fluorescence, CHO cells forcibly expressing human OX2 receptor)
Format: cell-based
Settings: compound at 3 μM; 0% = DMSO, 100% = orexin A (human) 10 nM
Measured Property: OX2R agonist activity (3 μM, %)

> print(dat)
                                   molecule  readout.value
1  Cc1cc(F)cc(-c2cccc(C[C@H]3[C@@H](NS(=O)(=O)C4CC4)[C@@H](F)CN3C(=O)C3CCO3)c2F)c1 (stereo partly shown) [Example 491]             93
2  Cc1cccc(-c2cccc(C[C@H]3[C@@H](NS(=O)(=O)C4CC4)C(F)(F)CN3C(=O)N(C)C)c2F)c1 [Example 425]             95
3  CCS(=O)(=O)N[C@@H]1[C@H](Cc2cccc(-c3cc(F)cc(F)c3)c2F)N(C(=O)N(C)C)CC1(F)F [Example 282]             96
4  CC(C)(O)C(=O)N1CC(F)(F)[C@H](NS(C)(=O)=O)[C@@H]1Cc1cccc(-c2cc(F)cc(F)c2)c1F [Example 2]            106
5  Cc1cccc(-c2cccc(C[C@H]3[C@@H](NS(=O)(=O)N(C)C)C(F)(F)CN3C(=O)N(C)C)c2F)c1 [Example 442]             96
6  CS(=O)(=O)N[C@@H]1[C@H](Cc2cccc(-c3cccc(F)c3)c2)N(C(=O)C23CC(C2)C3)CC1(F)F [Example 21]            102
7  CS(=O)(=O)N[C@@H]1[C@H](Cc2cccc(-c3cccc(F)c3)c2F)N(C(=O)C2CC(F)C2)CC1(F)F (stereo partly shown) [Example 393]             94
